Data origin: patent US8088924B2

measuredTarget: human CB1 receptor (Homo sapiens)
Sequence (P21554 whole entry): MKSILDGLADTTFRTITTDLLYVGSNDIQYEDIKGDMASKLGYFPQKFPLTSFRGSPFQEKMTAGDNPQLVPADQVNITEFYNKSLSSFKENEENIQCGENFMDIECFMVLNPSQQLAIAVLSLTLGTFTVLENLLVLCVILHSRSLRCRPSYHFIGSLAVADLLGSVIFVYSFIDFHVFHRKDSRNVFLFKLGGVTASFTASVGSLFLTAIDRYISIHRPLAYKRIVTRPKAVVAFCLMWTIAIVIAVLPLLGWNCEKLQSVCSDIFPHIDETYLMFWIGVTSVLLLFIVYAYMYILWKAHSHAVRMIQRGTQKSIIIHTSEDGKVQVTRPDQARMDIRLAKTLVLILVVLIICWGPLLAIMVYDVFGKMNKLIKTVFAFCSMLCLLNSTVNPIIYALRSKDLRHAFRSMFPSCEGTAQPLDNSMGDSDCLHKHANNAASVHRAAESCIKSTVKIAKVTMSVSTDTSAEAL
measuredQuantity: Ki
Please append the unit to your numeric answer.

[[record]]
compoundstring = "CCCCn1c(C)c(C)cc(NC(=O)c2ccccc2C)c1=O"
measuredtarget = "human CB1 receptor (Homo sapiens)"
reportedmeasurement = "390 nM"

[[record]]
compoundstring = "CCCCn1c(C)c(C)cc(NC(=O)c2ccccc2Cl)c1=O"
measuredtarget = "human CB1 receptor (Homo sapiens)"
reportedmeasurement = "391 nM"


Could you now consider this next compound?
Dear colleague, please send me the reported Ki for CCCCn1c2c(cc(C(=O)NCCc3ccc(N)cc3)c1=O)CCCC2 when you can.
680 nM
